Source of measurements: the supplement of paper PMC11208160

- method summary: recombinant barcode read abundance after kanamycin selection (control-corrected) (log10(CPM+1)); higher = more efficient recombination; sequences stand for … in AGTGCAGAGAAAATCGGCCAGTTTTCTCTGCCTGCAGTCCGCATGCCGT…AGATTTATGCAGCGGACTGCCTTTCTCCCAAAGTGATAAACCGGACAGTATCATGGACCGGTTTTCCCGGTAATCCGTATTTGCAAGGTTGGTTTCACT; site = the 11-nt target
measure: recombinant barcode read abundance (log10)

> print(dat)
                               residue.codes  endpoint.result
 1  CAATCTACTTGGGTTCTAACCTGTTGCCT (site CAACCTACTAG)            0.391
 2  GGGAACGCTTGGGTTCTAACCTGTTGCCT (site GGGAATGCTAG)           0.0432
 3  TAGCCTACTTGGGTTCTAACCTGTTGCGC (site TAGCCTACTTC)           0.0255
 4  CACTTATCTTGGGTTCTAACCTGTTGCCT (site CACTTAACTAG)            0.149
 5  CTAAGGTCTTGGGTTCTAACCTGTTGCGT (site CTAAGGTCTAG)            0.209
 6  GGGCCTACTTGGGTTCTAACCTGTTGCTC (site GGGCCTACTCA)           0.0546
 7  GGGGCTTCTTGGGTTCTAACCTGTTGCAT (site GGGTCTTCTAT)             0.27
 8  GATTCGACTTGGGTTCTAACCTGTTGCGT (site CTGGACCCTCG)           0.0133
 9  TGGCAGACTTGGGTTCTAACCTGTTGCCT (site TGGCAGCCTAG)            0.263
10  GCGTCACCTTGGGTTCTAACCTGTTGCCT (site ACGTCACCTAG)           0.0445

###

- method summary: recombinant UMI read abundance after kanamycin selection (control-corrected) (log10(CPM+1)); higher = more efficient recombination; extreme values may be limits of the assay; sequences stand for … in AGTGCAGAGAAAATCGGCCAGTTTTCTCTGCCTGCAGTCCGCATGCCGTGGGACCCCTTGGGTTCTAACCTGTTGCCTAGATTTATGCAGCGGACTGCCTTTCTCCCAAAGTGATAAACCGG…AGGTTGGTTTCACT; site = the 11-nt donor
Is recombinant UMI read abundance (log10) at least 0.1? Then class 1. If not, class 0.

> print(dat)
                              residue.codes  discrete.label
1  CCTAACGCATGGACCGGTTTTCCCGGTAATCCGTATTTGAT (site CCTAAAGCTAT)         class 0
2  TGTTCCCCATGGACCGGTTTTCCCGGTAATCCGTATTTGTA (site TGTTCCTCTTA)         class 1
3  ACATGTACATGGACCGGTTTTCCCGGTAATCCGTATTTGAC (site ACATGTACTGT)         class 1
4  TCGGAGACATGGACCGGTTTTCCCGGTAATCCGTATTTGCG (site TCCGAGACTCG)         class 1
5  TGCTAGGCATGGACCGGTTTTCCCGGTAATCCGTATTTGGT (site TGTTAGGCTAC)         class 0

###

- method summary: recombinant UMI read abundance after kanamycin selection (control-corrected) (log10(CPM+1)); higher = more efficient recombination; extreme values may be limits of the assay; sequences stand for … in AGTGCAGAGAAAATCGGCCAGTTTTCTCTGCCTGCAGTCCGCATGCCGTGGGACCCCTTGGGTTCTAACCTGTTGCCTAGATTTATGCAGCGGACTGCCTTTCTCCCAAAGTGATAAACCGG…AGGTTGGTTTCACT; site = the 11-nt donor
Is recombinant UMI read abundance (log10) at least 0.3? Then fulfilled. If not, not fulfilled.

> print(dat)
                              residue.codes  discrete.label
1  GTTGGTCCATGGACCGGTTTTCCCGGTAATCCGTATTTGGT (site GTTGCTCCTAC)   not fulfilled
2  ACGCGGACATGGACCGGTTTTCCCGGTAATCCGTATTTGTG (site ACGCGGACTCA)       fulfilled
3  CCAAATACATGGACCGGTTTTCCCGGTAATCCGTATTTGGC (site CCAAATACTGC)   not fulfilled
4  CTAGTCACATGGACCGGTTTTCCCGGTAATCCGTATTTGGG (site CTAGTCACTCC)   not fulfilled
5  TCTGAGACATGGACCGGTTTTCCCGGTAATCCGTATTTGCG (site TCGGAGACTCG)   not fulfilled
6  TGGTCCACATGGACCGGTTTTCCCGGTAATCCGTATTTGTC (site TGGTCCACTGA)       fulfilled
7  GTGGAGGCATGGACCGGTTTTCCCGGTAATCCGTATTTGTT (site GTGGAGGCTAA)       fulfilled
8  GAGTACCCATGGACCGGTTTTCCCGGTAATCCGTATTTGTT (site GAGTACCCTAA)   not fulfilled
9  CGAACGTCATGGACCGGTTTTCCCGGTAATCCGTATTTGCT (site CGAACGTCTAG)       fulfilled

###

- method summary: recombinant UMI read abundance after kanamycin selection (control-corrected) (log10(CPM+1)); higher = more efficient recombination; extreme values may be limits of the assay; sequences stand for … in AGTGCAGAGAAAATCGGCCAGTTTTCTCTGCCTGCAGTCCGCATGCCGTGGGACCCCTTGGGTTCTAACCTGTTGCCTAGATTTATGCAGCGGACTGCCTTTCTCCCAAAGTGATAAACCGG…AGGTTGGTTTCACT; site = the 11-nt donor
Is recombinant UMI read abundance (log10) at least 0.6? Then MET. If not, NOT MET.

> print(dat)
                               residue.codes  discrete.label
 1  TGACCATCATGGACCGGTTTTCCCGGTAATCCGTATTTGCT (site TGACCATCTAG)             MET
 2  TCAGAGACATGGACCGGTTTTCCCGGTAATCCGTATTTGCA (site TCAGAGACTAG)         NOT MET
 3  ACACATCCATGGACCGGTTTTCCCGGTAATCCGTATTTGGC (site ACACATCCTGA)         NOT MET
 4  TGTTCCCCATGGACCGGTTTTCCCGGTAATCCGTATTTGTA (site TGTACCCCTTA)         NOT MET
 5  AGCCTATCATGGACCGGTTTTCCCGGTAATCCGTATTTGAC (site AGCCTATCTGT)             MET
 6  AATTATGCATGGACCGGTTTTCCCGGTAATCCGTATTTGTA (site AATTATGCTTC)         NOT MET
 7  GTGCATGCATGGACCGGTTTTCCCGGTAATCCGTATTTGGT (site GTGCATGCTTC)         NOT MET
 8  AATTATGCATGGACCGGTTTTCCCGGTAATCCGTATTTGAA (site AATTATGCTTA)         NOT MET
 9  GTGGAAGCATGGACCGGTTTTCCCGGTAATCCGTATTTGTG (site GTGGAGGCTCA)             MET
10  ACGAAGTCATGGACCGGTTTTCCCGGTAATCCGTATTTGGG (site ACGAAGTCTCC)         NOT MET
11  ACACGATCATGGACCGGTTTTCCCGGTAATCCGTATTTGTC (site ACACGACCTGA)         NOT MET
12  TGGACACCATGGACCGGTTTTCCCGGTAATCCGTATTTGAC (site TGAACACCTGT)         NOT MET
13  TTAAGCCCATGGACCGGTTTTCCCGGTAATCCGTATTTGGT (site TTAAGCCCTAC)         NOT MET
14  TGGCCGGCATGGACCGGTTTTCCCGGTAATCCGTATTTGGC (site TCGCCGGCTGC)         NOT MET
15  TATTTGGCATGGACCGGTTTTCCCGGTAATCCGTATTTGCG (site TATTTGGCTCG)         NOT MET
16  GCTACTGCATGGACCGGTTTTCCCGGTAATCCGTATTTGAC (site GCTACTGCTGA)         NOT MET
17  AAGAAGACATGGACCGGTTTTCCCGGTAATCCGTATTTGCC (site AAGAAGACTGG)             MET

###

- method summary: recombinant barcode read abundance after kanamycin selection (control-corrected) (log10(CPM+1)); higher = more efficient recombination; sequences stand for … in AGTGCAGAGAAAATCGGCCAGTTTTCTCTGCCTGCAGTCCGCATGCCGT…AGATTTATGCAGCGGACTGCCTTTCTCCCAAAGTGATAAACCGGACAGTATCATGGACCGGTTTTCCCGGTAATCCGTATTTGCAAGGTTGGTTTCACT; site = the 11-nt target
Entries and their recombinant barcode read abundance (log10) values follow.
measure: recombinant barcode read abundance (log10)

> print(dat)
                               residue.codes  endpoint.result
 1  CCGGTTGCTTGGGTTCTAACCTGTTGCCT (site CCGGTTGCTAG)             2.76
 2  GATCTAGCTTGGGTTCTAACCTGTTGCAT (site GATCTAGCTAT)            0.574
 3  CATGATTCTTGGGTTCTAACCTGTTGCCT (site CATAATTCTAG)           0.0239
 4  ACGTAGACTTGGGTTCTAACCTGTTGCAG (site ACAGAGACTCT)            0.145
 5  AACGTACCTTGGGTTCTAACCTGTTGCCA (site AACGTACCTTG)            0.674
 6  TAGATTACTTGGGTTCTAACCTGTTGCCT (site TAAAATACTAG)             0.12
 7  GCCCGAACTTGGGTTCTAACCTGTTGCCT (site GCACGAACTAG)            0.141
 8  AATTTCTCTTGGGTTCTAACCTGTTGCCT (site CATTTCTCTAG)           0.0907
 9  GGGCCTACTTGGGTTCTAACCTGTTGCTT (site GGGCCTACTAA)            0.914
10  CTCGCGACTTGGGTTCTAACCTGTTGCGG (site CTCGCAGCTCC)            0.655
11  CCTCGAGCTTGGGTTCTAACCTGTTGCGG (site CCTCGAGCTCC)             1.86
12  TGAGGATCTTGGGTTCTAACCTGTTGCCT (site TGAGGATCTAG)             0.99
13  AAATTTCCTTGGGTTCTAACCTGTTGCCT (site ACATTTCCTAG)           0.0879
14  CTCTACCCTTGGGTTCTAACCTGTTGCGT (site CTCTATCCTAC)           0.0916
15  ATGGGCACTTGGGTTCTAACCTGTTGCCT (site ATGGGCACTAG)            0.639
16  GAAGACGCTTGGGTTCTAACCTGTTGCCT (site GAAGCCGCTAG)            0.315
17  CGTTCTACTTGGGTTCTAACCTGTTGCCT (site CGTTCAACTAG)           0.0719
18  CGTGGTCCTTGGGTTCTAACCTGTTGCCT (site CGTGGTCCTAC)            0.413
19  ATAACAGCTTGGGTTCTAACCTGTTGCCT (site ATAAGAGCTAG)            0.279
20  CATTAGCCTTGGGTTCTAACCTGTTGCCT (site CATTAGCCTAG)            0.583
21  GAGGAGTCTTGGGTTCTAACCTGTTGCCT (site GAGCAGTCTAG)           0.0568
